Cited source: patent US20250059285A1

# assayed_target: T1, cynomolgus Gal10-His (WGS isoform) (cynomolgus)
# T1 construct: also called cynomolgus antigen
# test_protocol: SPR Biacore 3000, hFab on cynomolgus Gal10-His (WGS) captured by anti-His CM5
value_kind: koff (s⁻¹)
Express your answer in s⁻¹, writing the number without its unit.

Reference set (4 entries):
| binder | uom | experimental_result |
| --- | --- | --- |
| g7B07_N53A (human Fab) (Fab, V domains shown, VH assembled by inference as for g7B07; Human Fab backbone; also called g7B07_N53A (mean)) VH: EVQLLESGGGLVQPGGSLRLSCAASGFTFRSYDMSWVRQAPGKGLEWVSAIKAGGGITYYADSVKGRFTISRDNSKNTLYLQMNSLRAEDTAVYYCATTHGIGTLGFGSWGQGTLVTVSS VL: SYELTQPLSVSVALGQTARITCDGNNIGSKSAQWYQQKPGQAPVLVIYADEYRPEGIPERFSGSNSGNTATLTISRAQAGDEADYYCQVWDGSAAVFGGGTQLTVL | s⁻¹ | 0.21 |
| g24F02_N53A (human Fab) (Fab, V domains shown, Human Fab backbone: human CH1 and human lambda constant domain (pUPEX vectors); also called g24F02_N53A_2W) VH: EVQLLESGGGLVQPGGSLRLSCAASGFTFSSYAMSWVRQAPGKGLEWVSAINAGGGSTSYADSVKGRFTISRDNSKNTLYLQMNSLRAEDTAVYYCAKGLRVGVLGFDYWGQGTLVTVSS VL: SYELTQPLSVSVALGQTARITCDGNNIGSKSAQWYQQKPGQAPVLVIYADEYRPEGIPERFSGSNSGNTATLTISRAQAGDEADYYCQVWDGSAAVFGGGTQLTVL | s⁻¹ | 0.0088 |
| g7B07 (human Fab) (Fab, V domains shown, Human Fab backbone; their format is not certain; also called g7B07-hFab; germlined 7B07) VH: EVQLLESGGGLVQPGGSLRLSCAASGFTFRSYDMSWVRQAPGKGLEWVSAIKNGGGITYYADSVKGRFTISRDNSKNTLYLQMNSLRAEDTAVYYCATTHGIGTLGFGSWGQGTLVTVSS VL: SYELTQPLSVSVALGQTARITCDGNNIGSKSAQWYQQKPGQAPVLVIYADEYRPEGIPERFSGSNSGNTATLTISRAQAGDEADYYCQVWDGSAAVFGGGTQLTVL | s⁻¹ | 0.13 |
| g24F02 (human Fab) (Fab, V domains shown, Human Fab backbone (human CH1, human lambda CL); also called germlined 24F02) VH: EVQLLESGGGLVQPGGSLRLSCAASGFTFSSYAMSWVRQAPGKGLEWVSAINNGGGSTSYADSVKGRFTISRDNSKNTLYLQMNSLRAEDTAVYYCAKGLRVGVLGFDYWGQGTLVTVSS VL: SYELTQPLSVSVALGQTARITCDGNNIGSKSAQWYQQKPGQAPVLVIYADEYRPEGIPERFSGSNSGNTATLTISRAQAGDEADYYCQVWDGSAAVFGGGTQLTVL | s⁻¹ | 0.0078 |

For the binder g23H09 (Fab) (Fab, V domains shown, same VH/VL) VH: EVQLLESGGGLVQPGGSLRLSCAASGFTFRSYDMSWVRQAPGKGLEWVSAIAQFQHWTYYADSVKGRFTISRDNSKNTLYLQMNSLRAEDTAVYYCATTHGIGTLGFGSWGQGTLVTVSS VL: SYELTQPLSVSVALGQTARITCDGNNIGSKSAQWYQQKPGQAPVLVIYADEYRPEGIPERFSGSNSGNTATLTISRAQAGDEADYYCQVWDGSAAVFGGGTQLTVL , report koff. 0.0095
